# tgt: GST-PSD95 PDZ domains 1-3 (human), P78352
# test summary: G assay ELISA, E6 PL peptide titrated on constant GST-PDZ
pEC50: −log10 of the molar value. Ends that are not written are not given here.
measure: pEC50

* WTGRCMSCCRSSRTRRETQL (not fully specified; cysteine pairing not given here) [HPV16 E6 C-terminal PDZ ligand peptide (20 mer, biotinylated), P03126 139-158] | 6.00
